Measured t1/2, listed per entry.
Target: T1, human FLT3 (human, UniProt P36888 27-541, limits assumed)
T1 construct: Soluble analyte hFLT3 in SPR; also called hFLT3; huFlt3
T1 sequence: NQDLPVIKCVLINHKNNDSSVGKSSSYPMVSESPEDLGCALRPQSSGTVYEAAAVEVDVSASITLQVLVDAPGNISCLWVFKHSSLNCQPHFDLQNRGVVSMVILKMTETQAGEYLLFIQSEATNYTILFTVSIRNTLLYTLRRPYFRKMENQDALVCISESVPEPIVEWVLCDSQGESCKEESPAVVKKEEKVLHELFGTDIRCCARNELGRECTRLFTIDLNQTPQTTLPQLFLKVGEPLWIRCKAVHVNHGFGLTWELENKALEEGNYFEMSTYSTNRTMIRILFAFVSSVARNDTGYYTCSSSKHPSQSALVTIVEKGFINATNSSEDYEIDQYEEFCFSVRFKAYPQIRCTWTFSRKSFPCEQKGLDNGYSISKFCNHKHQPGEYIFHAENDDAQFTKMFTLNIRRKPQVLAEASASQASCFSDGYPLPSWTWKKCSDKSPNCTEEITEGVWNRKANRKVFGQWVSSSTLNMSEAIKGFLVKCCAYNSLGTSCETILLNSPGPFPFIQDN
Assay: SPR Biacore T200, 37C; scFv format
Provide a numeric answer, followed by its unit.

Look over these answered cases.
binder: P4H11 (scFv format) (scFv) scFv: EVQLLESGGGLVQPGGSLRLSCAASGFTFSSYAMNWVRQAPGKGLEWVSSISGGGRSTYYADSVKGRFTISRDNSKNTLYLQMNSLRAEDTAVYYCARDLSPSDVGWGYGFDIWGQGTLVTVSSGGGGSGGGGSGGGGSEIVLTQSPGTLSLSPGERATLSCRASQSVSNTYLAWYQQKPGQAPRLLIYDTSSRATGIPDRFSGSGSGTDFTLTISRLEPEDFAVYYCQQYGSSLTFGQGTKVEIK
t1/2: 1 min
//
binder: P1B4 (scFv format) (scFv, not shown: a dimerising Fc or GST; small tags and cut ends) scFv: QVQLVQSGAEVKKPGSSVKVSCKASGGVFSRYALSWVRQAPGQGLEWMGGIIPMLGFANYAQKFQGRVTITADESTSTAYMELSSLRSEDTAVYYCATLDFGALDYWGQGTLVTVSSGGGGSGGGGSGGGGSEIVLTQSPGTLSLSPGERATLSCRASQSVPNEQLAWYQQKPGQAPRLLIYDASSRATGIPDRFSGSGSGTDFTLTISRLEPEDFAVYYCQQYGSPPLTFGQGTKVEIK
t1/2: 3.5 min

INPUT: Tell me the measured t1/2 of P9F1 (scFv format) (scFv, not shown: a dimerising Fc or GST; small tags and cut ends) scFv: EVQLLESGGGLVQPGGSLRLSCAASGFIFSSFAMSWVRQAPGKGLEWVSDISGSGASTYYADSVKGRFTISRDNSKNTLYLQMNSLRAEDTAVYYCASASGGSGSYWPYMDPWGQGTLVTVSSGGGGSGGGGSGGGGSQSVLTQPPSASGTPGQRVTISCSGSGSNIGSNYVYWYQQLPGTAPKLLIYRNNQRPSGVPDRFSGSKSGTSASLAISGLRSEDEADYYCAAWDGSLSRPVFGTGTKLTVL , please.
OUTPUT: 0.4 min

INPUT: Tell me the measured t1/2 of P4C7 (scFv format) (scFv, not shown: a dimerising Fc or GST; small tags and cut ends) scFv: QVQLVQSGAEVKKPGSSVKVSCKASGGTFSSYTISWVRQAPGQGLEWMGGIIPAFGIANYAQKFQGRVTITADKSTSTAYMELSSLRSEDTAVYYCAKGGSYSLDYFDIWGQGTLVTVSSGGGGSGGGGSGGGGSEIVLTQSPGTLSLSPGERATLSCRASQYVSASLLAWYQQKPGQAPRLLIYGASTRATGIPDRFSGSGSGTDFTLTISRLEPEDFAVYYCQQYARSSTFGQGTKVEIK , please.
OUTPUT: 7 min

INPUT: Tell me the measured t1/2 of P1B11 (scFv format) (scFv, not shown: a dimerising Fc or GST; small tags and cut ends) scFv: QVQLVQSGAEVKKPGSSVKVSCKASGGTFRSFDISWVRQAPGQGLEWMGRIIPILGYANYAQKFQGRVTITADESTSTAYMELSSLRSEDTAVYYCASDLGAPWAGYPFDPWGQGTLVTVSSGGGGSGGGGSGGGGSEIVLTQSPGTLSLSPGERATLSCRASQSVSSSELAWYQQKPGQAPRLLIYDASSRATGIPDRFSGSGSGTDFTLTISRLEPEDFAVYYCQQYDSSPLTFGQGTKVEIK , please.
OUTPUT: 4.5 min
